Please go through the items and note down their pIC50.
# measured-target: Prothrombin (Homo sapiens, UniProt P00734)
# test: Inhibition of human thrombin using spectrozyme TH as substrate pretreated for 10 mins followed by substrate addition measured in presence of 10 uM exosite 2 competitor unfractionated heparin by spectrophotometric method
By convention, pIC50 is the negative base-10 log of a molar concentration.

stdin: Would you mind telling me what pIC50 value was observed for CCOC(=O)c1c(C)oc2cc(OCCc3ccccc3)c(OCc3oc4cc(OC)c(OS(=O)(=O)O)cc4c3C(=O)OCC)cc12 ?
stdout: 5.48

stdin: What do you get for CCOC(=O)c1c(C)oc2cc(OCc3ccccc3)c(OCc3oc4cc(OCC5CCCCC5)c(OS(=O)(=O)O)cc4c3C(=O)OCC)cc12 ?
stdout: 5.57

---

# measured-target: UniProt P00734
# test: Binding affinity to wild-type thrombin (unknown origin) by intrinsic fluorescence method
measured-property: Kd (nM)
Your answer is read as nM, so omit the unit and give the number.

stdin: Need Kd, item CCOC(=O)c1c(C)oc2cc(OCCc3ccccc3)c(OCc3oc4cc(OC)c(OS(=O)(=O)O)cc4c3C(=O)OCC)cc12
stdout: 2800

---

# measured-target: UniProt:P00734
# test: Inhibition of human thrombin using spectrozyme TH as substrate pretreated for 10 mins followed by substrate addition measured in absence of exosite 1 competitor hirudine peptide by spectrophotometric method
Would you kindly list IC50 for each of these molecules?

stdin: Query (molecule): CCOC(=O)c1c(C)oc2cc(OCc3ccccc3)c(OCc3oc4cc(OCC5CCCCC5)c(OS(=O)(=O)O)cc4c3C(=O)OCC)cc12 ; field requested: IC50
stdout: 2000 nM

stdin: And for CCOC(=O)c1c(C)oc2cc(OCCc3ccccc3)c(OCc3oc4cc(OC)c(OS(=O)(=O)O)cc4c3C(=O)OCC)cc12 ?
stdout: 1300 nM

---

# measured-target: Prothrombin (Homo sapiens, UniProt P00734)
# test: Binding affinity to human fluorescence labelled FPRCK-alpha thrombin by fluorimetric method
measured-property: pKd
// pKd is dimensionless: -log10 of concentration (M)

stdin: pKd of CCOC(=O)c1c(C)oc2cc(OCCc3ccccc3)c(OCc3oc4cc(OC)c(OS(=O)(=O)O)cc4c3C(=O)OCC)cc12 on Prothrombin (Homo sapiens, UniProt P00734)?
stdout: 5.43

stdin: Field entry: CCOC(=O)c1c(C)oc2cc(OCc3ccccc3)c(OCc3oc4cc(OCC5CCCCC5)c(OS(=O)(=O)O)cc4c3C(=O)OCC)cc12
stdout: 6.00

---

# measured-target: Prothrombin (Homo sapiens, UniProt P00734)
# test: Partial allosteric inhibition of human thrombin using spectrozyme TH as substrate pretreated for 10 mins followed by substrate addition by spectrophotometric method
measured-property: IC50

stdin: Lab note: need IC50 with Prothrombin (Homo sapiens, UniProt P00734) for entry Cc1oc2cc(OCc3ccccc3)c(OS(=O)(=O)O)cc2c1C(=O)O , please look it up.
stdout: > 500 µM

stdin: Try this compound next: CCOC(=O)c1c(C)oc2cc(OCc3ccc(OC(C)C)cc3)c(OS(=O)(=O)O)cc12
stdout: > 500 µM

stdin: Would you kindly repeat that for COc1cc2oc(C)c(C(=O)OCCOS(=O)(=O)O)c2cc1OS(=O)(=O)O ?
stdout: > 500 µM

stdin: Follow-up item: CCOC(=O)c1c(C)oc2cc(Oc3cccc(OS(=O)(=O)O)c3)c(OCc3oc4cc(OC)c(OS(=O)(=O)O)cc4c3C(=O)OCC)cc12
stdout: > 300 µM

---

# measured-target: Prothrombin (Homo sapiens)
# test: Partial allosteric inhibition of human thrombin using spectrozyme TH as substrate pretreated for 10 mins followed by substrate addition by spectrophotometric method
measured-property: IC50

stdin: Which IC50 is reported for this compound? COC(=O)c1c(C)oc2cc(OCc3cccc(OS(=O)(=O)O)c3)c(OCc3cccc(S(=O)(=O)O)c3)cc12
stdout: > 500 µM

stdin: And what about the compound CCOC(=O)c1c(C)oc2cc(OCc3cccc(OC(C)C)c3)c(OS(=O)(=O)O)cc12 ?
stdout: > 500 µM

stdin: Now consider CCOC(=O)c1c(C)oc2cc(OCc3cccc(OS(=O)(=O)O)c3)c(OS(=O)(=O)O)cc12 and answer again.
stdout: > 500 µM

stdin: What do you get for CCOC(=O)c1c(C)oc2cc(OS(=O)(=O)O)c(OCc3oc4cc(OC)c(OS(=O)(=O)O)cc4c3C(=O)OCC)cc12 ?
stdout: > 300 µM

---

# measured-target: Prothrombin (Homo sapiens)
# test: Partial allosteric inhibition of human thrombin using spectrozyme TH as substrate pretreated for 10 mins followed by substrate addition by spectrophotometric method
measured-property: Efficacy (%)
Numeric only. Scale: %

stdin: Find Efficacy (Prothrombin (Homo sapiens)) for the entry CCOC(=O)c1c(C)oc2cc(OCc3ccccc3)c(OCc3oc4cc(OC)c(OS(=O)(=O)O)cc4c3C(=O)OCCOS(=O)(=O)O)cc12
stdout: 74

stdin: What about this molecule? CCOC(=O)c1c(C)oc2cc(OCC3CCCCC3)c(OCc3oc4cc(OC)c(OS(=O)(=O)O)cc4c3C(=O)OCC)cc12
stdout: 63

stdin: Ok, now CCOC(=O)c1c(C)oc2cc(OCc3ccc(OCOC)cc3)c(OCc3oc4cc(OC)c(OS(=O)(=O)O)cc4c3C(=O)OCC)cc12
stdout: 61

stdin: And then CCOC(=O)c1c(C)oc2cc(OC)c(OCc3oc4cc(OCC5CCCCC5)c(OS(=O)(=O)O)cc4c3C(=O)OCC)cc12 , what is it?
stdout: 77

stdin: Try this molecule next: CCOC(=O)c1c(COc2cc3c(C(=O)OCc4ccc(OCOC)cc4)c(C)oc3cc2OC)oc2cc(OC)c(OS(=O)(=O)O)cc12
stdout: 66

stdin: Could you do the same for CCOC(=O)c1c(C)oc2cc(OCc3cccc(OCOC)c3)c(OCc3oc4cc(OC)c(OS(=O)(=O)O)cc4c3C(=O)OCC)cc12 , please?
stdout: 59

stdin: Same lookup for CCOC(=O)c1c(C)oc2cc(OC)c(OCc3cccc(S(=O)(=O)O)c3)cc12 , please.
stdout: 101

stdin: // repeat for CCOC(=O)c1c(COc2cc3c(C(=O)OCCc4ccccc4)c(C)oc3cc2OC)oc2cc(OC)c(OS(=O)(=O)O)cc12 and report
stdout: 58

stdin: Same lookup for CCOC(=O)c1c(C)oc2cc(OCc3cccc(OCOC)c3)c(OS(=O)(=O)O)cc12 , please.
stdout: 75.9
